Attribution: PubChem BioAssay AID493067

Assay overview: Confirmation Concentration-Response Assay for qHTS Assay for Epigenetic Modulators
Test conditions: murine C127i LDR cells, GFP reporter derepression, 30 h; series mostly up to 46.1 µM
Results filed as inconclusive are left out. Activity calls are given as the source filed them. Calls follow the shape of the dose curve; as a rule, active = well fitted activation curve with a large enough effect; inconclusive = small, poorly fitted or top-dose-only effect; inactive = flat fitted curve, though single readings scatter.
// one of Y (active), N (inactive), no free text

Worked cases, answers included:
Molecule: Oc1ccc(Br)cc1C=Nc1ccc2c3c(cccc13)CC2
Label class: N
--
Molecule: CCN(CC)c1ccc2c(c1)oc(=O)c1c(Cl)cc(=O)oc12
Label class: Y
--
Molecule: Cc1cc(N2CCN(c3ccc([N+](=O)[O-])c4cccnc34)CC2)c2ccccc2n1
Label class: Y

Moving on to the next molecule.
What call does the record list for `CCc1nnc(NC(=O)c2cccc(C(=O)Nc3nnc(CC)s3)n2)s1` ?
Y

* * *

Assay overview: Confirmation Concentration-Response Assay for qHTS Assay for Epigenetic Modulators
Test conditions: murine C127i LDR cells, GFP reporter derepression, 30 h; series mostly up to 46.1 µM
Records with an inconclusive call do not appear. Active and inactive are the calls of the source. Calls come from the whole dose curve; as a rule, active = well fitted activation curve with a large enough effect; inconclusive = small, poorly fitted or top-dose-only effect; inactive = flat fitted curve, though single readings scatter.
Please answer using one outcome listed in label 1 (active), label 0 (inactive)

For orientation, consider the following solved cases.
Molecule: CC1=C/C(=N\NC(=S)Nc2cccnc2)CC(C)(C)C1
Label class: label 1
--
Molecule: Cc1ccc(/C=[N+](\[O-])c2ccc(N(C)C)cc2)c2nsnc12
Label class: label 0

Hello, I am checking results. What call was entered for `O=C(CSc1cccc[n+]1[O-])c1ccccc1Br` ?
label 1

Hello, I am checking results. What call was entered for `N#Cc1sc2nc(-c3ccccc3)cc(C(F)(F)F)c2c1N` ?
label 1

Please indicate how the test categorized `O=C(O)CCCCCN1C(=O)/C(=C\c2ccc(-c3ccc(Cl)cc3)o2)SC1=S` .
label 1

* * *

Assay overview: Confirmation Concentration-Response Assay for qHTS Assay for Epigenetic Modulators
Test conditions: murine C127i LDR cells, GFP reporter derepression, 30 h; series mostly up to 46.1 µM
Records with an inconclusive call do not appear. Calls of active or inactive are those of the source. Calls follow the shape of the dose curve; as a rule, active = well fitted activation curve with a large enough effect; inconclusive = small, poorly fitted or top-dose-only effect; inactive = flat fitted curve, though single readings scatter.
Result category, one only: 1 for active, -1 for inactive

Below, 3 compounds whose answers are already recorded.
Compound: CCc1ccc(NC(=O)C2CCC(CNS(=O)(=O)c3ccc4c(c3)CC(C)N4C(C)=O)CC2)cc1 (stereo unspecified)
Label class: -1
--
Compound: CCOC(=O)c1cc2c(=O)n3ccccc3nc2n(Cc2ccco2)c1=NC(=O)c1ccc(Br)cc1
Label class: 1
--
Compound: CCOn1c(=O)c[n+]([O-])c2ccccc21
Label class: -1

Status in this test for `Cc1nc(CSc2nsc(/C=C/N(C)C)c2C#N)cs1` ?
-1

Per the records of this test, what outcome belongs to `S=C(Nc1ccccc1)c1ccccn1` ?
1

Returns: the outcome recorded for `CC(=O)[C@H](CC(C)C)NC(=O)[C@@H](CC(C)C)NC(=O)[C@H](CC(C)C)NC(=O)OCc1ccccc1` in this assay.
1
